molecular target: 5-hydroxytryptamine receptor 2A (Homo sapiens); test: Agonist activity at human 5-HT2A receptor expressed in Flp-IN HEK293 cells assessed as induction of calcium flux measured every second for 5 mins by Fluo-4 dye based FLIPR assay
Sequence (P28223 whole entry): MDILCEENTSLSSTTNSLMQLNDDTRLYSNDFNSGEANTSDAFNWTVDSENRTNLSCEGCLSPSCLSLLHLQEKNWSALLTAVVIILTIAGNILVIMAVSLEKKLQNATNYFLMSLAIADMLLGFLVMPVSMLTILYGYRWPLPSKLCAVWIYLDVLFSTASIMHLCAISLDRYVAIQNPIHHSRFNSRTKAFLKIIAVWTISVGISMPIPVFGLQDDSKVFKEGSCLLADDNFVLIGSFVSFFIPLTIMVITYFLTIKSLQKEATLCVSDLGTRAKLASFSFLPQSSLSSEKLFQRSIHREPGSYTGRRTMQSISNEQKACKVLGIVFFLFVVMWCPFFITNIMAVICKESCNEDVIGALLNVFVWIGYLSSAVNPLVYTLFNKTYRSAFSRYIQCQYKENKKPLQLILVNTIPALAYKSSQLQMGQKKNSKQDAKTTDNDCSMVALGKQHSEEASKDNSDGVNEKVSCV
Measured Parameter: EC50 (nM)
Give the value, in units of nM, as a plain number.

Data request: For COc1ccc(F)cc1C1CC1CNC1(c2ccccc2OC)CC1.Cl (racemic) , what is its reported EC50?
Data returned: 655

Data request: Given the compound COc1ccccc1CN(C)CC1CC1c1cc(F)ccc1OC.Cl (racemic) , what is its reported EC50?
Data returned: 2540

Data request: Entry "COc1ccc(F)cc1[C@@H]1C[C@H]1CNCc1ccccc1F.Cl" : reported EC50 = ?
Data returned: 1880

Data request: Given the compound COc1ccc(F)cc1C1CC1CNCc1ccccc1C#N (racemic) , what is its reported EC50?
Data returned: 721

###

biological target: CYP3A4 (Homo sapiens); test: in vitro; settings: liver microsomes, probe midazolam
Sequence (P08684 whole entry): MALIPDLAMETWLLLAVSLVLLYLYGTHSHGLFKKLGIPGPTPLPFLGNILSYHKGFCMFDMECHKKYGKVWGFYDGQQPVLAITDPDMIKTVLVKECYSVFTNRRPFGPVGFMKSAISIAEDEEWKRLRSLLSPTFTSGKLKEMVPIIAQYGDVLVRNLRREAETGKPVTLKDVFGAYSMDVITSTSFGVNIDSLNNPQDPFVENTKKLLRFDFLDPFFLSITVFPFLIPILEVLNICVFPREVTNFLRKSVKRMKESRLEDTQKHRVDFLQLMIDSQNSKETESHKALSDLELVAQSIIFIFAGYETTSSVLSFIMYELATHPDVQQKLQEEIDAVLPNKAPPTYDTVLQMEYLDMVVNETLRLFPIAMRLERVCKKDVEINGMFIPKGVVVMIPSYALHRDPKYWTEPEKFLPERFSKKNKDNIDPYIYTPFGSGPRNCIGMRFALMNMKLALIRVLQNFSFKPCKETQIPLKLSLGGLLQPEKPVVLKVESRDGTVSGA
Measured Parameter: inhibition at 10 µM
Just the number plus its unit, please.

Data request: For "COc1ccccc1CNC[C@H]1C[C@@H]1c1cc(F)ccc1OC.Cl" , what is its reported inhibition at 10 µM?
Data returned: 85.6%

###

biological target: CYP1A2 (Homo sapiens, UniProt P05177); test: in vitro; conditions: liver microsomes, probe phenacetin
Sequence (P05177 whole entry): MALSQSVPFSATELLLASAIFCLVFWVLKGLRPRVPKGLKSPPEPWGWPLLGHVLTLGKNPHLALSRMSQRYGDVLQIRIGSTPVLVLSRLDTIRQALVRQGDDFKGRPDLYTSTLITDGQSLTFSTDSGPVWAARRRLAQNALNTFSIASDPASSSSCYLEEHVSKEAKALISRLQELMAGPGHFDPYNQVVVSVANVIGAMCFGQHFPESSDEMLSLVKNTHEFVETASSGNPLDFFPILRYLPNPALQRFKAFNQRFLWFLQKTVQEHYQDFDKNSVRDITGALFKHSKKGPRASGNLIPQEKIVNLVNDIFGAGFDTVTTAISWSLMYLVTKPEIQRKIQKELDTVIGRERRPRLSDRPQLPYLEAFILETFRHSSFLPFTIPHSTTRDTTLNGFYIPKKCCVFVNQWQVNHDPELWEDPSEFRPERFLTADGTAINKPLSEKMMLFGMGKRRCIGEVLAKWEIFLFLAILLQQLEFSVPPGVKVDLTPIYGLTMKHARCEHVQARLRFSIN
Measured Parameter: inhibition at 10 µM (%)
Return type: number; implicit unit %.

Data request: I am curious: what inhibition at 10 µM value has been reported for "COc1ccccc1CNC[C@H]1C[C@@H]1c1cc(F)ccc1OC.Cl" ?
Data returned: 20.5

###

target: 5-HT2A receptor (Homo sapiens); assay: Agonist activity at human 5-HT2A receptor expressed in Flp-IN HEK293 cells assessed as induction of calcium flux measured every second for 5 mins by Fluo-4 dye based FLIPR assay relative to serotonin; assay type: cell-based; conditions: Flp-IN HEK293 cells expressing human 5-HT2A receptor
Quick rule: Emax at 5 min of at least 70% means 1.0, below that means 0.0.

Data request: Hi, just wondering whether COc1ccc(F)cc1C1CC1CNCc1cccnc1OC (racemic) shows Emax at 5 min of 70% or higher.
Data returned: 0.0

Data request: Determine whether measured Emax at 5 min meets or exceeds 70% for COc1ccccc1CN(C)CC1CC1c1cc(F)ccc1OC.Cl (racemic)
Data returned: 0.0

Data request: Emax at 5 min >= 70% for "COc1ccccc1CNC[C@H]1C[C@@H]1c1cc(F)ccc1OC.Cl" ?
Data returned: 0.0

Data request: Dear colleague, could you confirm whether COc1ccc(F)cc1C1CC1CNCC1CC1.Cl (racemic) has Emax at 5 min at or above 70%?
Data returned: 0.0

Data request: Check the entry "COc1ccc(F)cc1[C@H]1C[C@@H]1CNCc1cccs1.Cl" : does Emax at 5 min equal or exceed 70%?
Data returned: 0.0

Data request: In plain terms: is recorded Emax at 5 min at least 70% for "COc1ccccc1CNC[C@@H]1C[C@H]1c1cc(F)ccc1OC" ?
Data returned: 1.0

Data request: Given the entry "CNC[C@H]1C[C@@H]1c1cc(F)ccc1OC" , answer whether its Emax at 5 min meets or surpasses 70%.
Data returned: 1.0

Data request: For this molecule, is measured Emax at 5 min 70% or higher? COc1ccc(F)cc1C1CC1CNCc1sccc1OC.Cl (racemic)
Data returned: 1.0

Data request: Evaluate COc1ccc(F)cc1C1CC1CNCc1ccsc1OC.Cl (racemic) : Emax at 5 min at minimum 70%?
Data returned: 1.0

Data request: Item "COc1ccc(F)cc1[C@H]1C[C@@H]1CNCc1ccccc1F.Cl" with Emax at 5 min of 70% or above?
Data returned: 0.0

Data request: // inclusive: Emax at 5 min at least 70%? input: "C=CCOc1ccc(F)cc1[C@H]1C[C@@H]1CNCc1ccccc1OC"
Data returned: 1.0

Data request: Identify whether the reported Emax at 5 min of the following molecule is 70% or greater: COc1ccc(F)cc1C1CC1CNCc1ccccc1C(N)=O (racemic)
Data returned: 0.0

Data request: Dear colleague, could you confirm whether COc1ccc(F)cc1C1CC1CNCc1ccccc1C#N (racemic) has Emax at 5 min at or above 70%?
Data returned: 0.0

Data request: API: above_or_equal(metric=Emax at 5 min, cutoff=70%) for item "C=CCOc1ccc(F)cc1[C@H]1C[C@@H]1CNC.Cl"
Data returned: 0.0

Data request: Is Emax at 5 min at least 70%? Consider COc1ccc(F)cc1C1CC1CNCc1ccccc1OCCF (racemic)
Data returned: 1.0

Data request: Reported Emax at 5 min reaches at least 70% for "COc1ccc(F)cc1[C@H]1C[C@@H]1CNCc1ccccc1Cl.Cl" ?
Data returned: 0.0

Data request: Please check the record COc1cscc1CNCC1CC1c1cc(F)ccc1OC.Cl (racemic) and state if its Emax at 5 min is at or above 70%.
Data returned: 1.0

Data request: Could you tell me if the measured Emax at 5 min of COc1ccc(F)cc1C1CC1CNC1(c2ccccc2OC)CC1.Cl (racemic) reaches 70% or more?
Data returned: 1.0

Data request: Kindly determine if Emax at 5 min recorded for COc1ccc(F)cc1C1CC1CNCc1ccccc1O.Cl (racemic) is above or exactly 70%.
Data returned: 1.0

Data request: Identify whether the reported Emax at 5 min of the following molecule is 70% or greater: "COc1cccc(CNC[C@@H]2C[C@H]2c2cc(F)ccc2OC)c1.Cl"
Data returned: 1.0

Data request: hey, is Emax at 5 min for this one >= 70%? COc1ccccc1CCNCC1CC1c1cc(F)ccc1OC (racemic)
Data returned: 0.0

Data request: Could you verify whether the entry COc1ccccc1C(C)NCC1CC1c1cc(F)ccc1OC.Cl (racemic) shows Emax at 5 min of no less than 70%?
Data returned: 1.0

Data request: Textbook exercise: given the entry "COc1ccc(F)cc1[C@@H]1C[C@H]1CNCc1cccs1.Cl" , state whether its Emax at 5 min is greater than or equal to 70%.
Data returned: 0.0

Data request: Given the entry "COc1ccccc1CNC[C@H]1C[C@@H]1c1cc(F)ccc1OCCF" , answer whether its Emax at 5 min meets or surpasses 70%.
Data returned: 1.0

Data request: Threshold query (Emax at 5 min >= 70%) on "COc1ccc(F)cc1[C@@H]1C[C@H]1CNCc1ccccc1F.Cl"
Data returned: 1.0

###

target: UniProt P14842; test: Agonist activity at rat 5-HT2A receptor expressed in African clawed frog oocytes assessed as increase in current amplitude relative to 5-HT; type: cell-based; details: African clawed frog oocytes expressing rat 5-HT2A receptor
Sequence (P14842 whole entry): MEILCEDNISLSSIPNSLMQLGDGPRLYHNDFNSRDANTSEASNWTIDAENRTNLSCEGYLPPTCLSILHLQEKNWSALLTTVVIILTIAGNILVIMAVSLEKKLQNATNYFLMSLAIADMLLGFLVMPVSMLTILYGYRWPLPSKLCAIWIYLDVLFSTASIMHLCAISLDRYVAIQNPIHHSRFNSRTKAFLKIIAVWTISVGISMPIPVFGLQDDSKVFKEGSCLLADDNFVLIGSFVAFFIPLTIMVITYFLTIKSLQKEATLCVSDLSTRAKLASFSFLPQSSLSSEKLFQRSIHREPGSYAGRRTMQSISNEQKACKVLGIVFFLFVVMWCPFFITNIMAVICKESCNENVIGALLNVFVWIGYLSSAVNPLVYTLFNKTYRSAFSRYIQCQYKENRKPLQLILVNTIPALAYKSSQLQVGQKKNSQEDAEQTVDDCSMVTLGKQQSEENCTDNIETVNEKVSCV
Measured Parameter: Emax (%)
Expressed in %, but write only the number.

Data request: Fill in the blank: the reported Emax of COc1cc(CC(C)N)c(OC)cc1I (stereo unspecified) is ____.
Data returned: 46

###

target: 5-hydroxytryptamine receptor 2B (Homo sapiens); assay: Agonist activity at human 5-HT2B receptor expressed in Flp-IN HEK293 cells assessed as induction of calcium flux measured every second for 5 mins by Fluo-4 dye based FLIPR assay
Sequence (P41595 whole entry): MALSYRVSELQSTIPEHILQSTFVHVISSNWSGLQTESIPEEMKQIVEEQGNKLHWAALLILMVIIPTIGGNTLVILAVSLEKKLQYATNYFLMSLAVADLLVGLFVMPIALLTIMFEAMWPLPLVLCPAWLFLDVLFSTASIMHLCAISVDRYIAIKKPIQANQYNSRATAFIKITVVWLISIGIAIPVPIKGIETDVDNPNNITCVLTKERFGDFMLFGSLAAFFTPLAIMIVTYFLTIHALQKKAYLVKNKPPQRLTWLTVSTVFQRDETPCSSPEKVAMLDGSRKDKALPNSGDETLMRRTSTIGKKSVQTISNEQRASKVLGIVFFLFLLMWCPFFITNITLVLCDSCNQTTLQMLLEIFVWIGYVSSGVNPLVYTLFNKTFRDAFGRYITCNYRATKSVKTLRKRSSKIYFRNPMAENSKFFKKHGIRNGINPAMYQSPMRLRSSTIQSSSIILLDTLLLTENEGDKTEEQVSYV
Measured Parameter: pEC50
pEC50 field: float, defined as -log10 of concentration (mol/L).

Data request: Return reported pEC50; argument: "COc1ccccc1CNC[C@@H]1C[C@H]1c1cc(F)ccc1OC"
Data returned: 6.24

Data request: Reported pEC50 for COc1ccc(F)cc1C1CC1CNC1CC1 (racemic) : what is it?
Data returned: 6.19

Data request: Given COc1ccc(F)cc1C1CC1CNCc1ccccc1C(N)=O (racemic) , state its recorded pEC50.
Data returned: 6.47

Data request: Item under review: COc1ccc(F)cc1C1CC1CNCc1ccccc1OCCF (racemic) . Reported pEC50?
Data returned: 7.25

Data request: Returns the measured pEC50 for the input compound. Input: "C=CCOc1ccc(F)cc1[C@H]1C[C@@H]1CNCc1ccccc1OC"
Data returned: 6.95

###

Target: UniProt P28335
Sequence (whole entry): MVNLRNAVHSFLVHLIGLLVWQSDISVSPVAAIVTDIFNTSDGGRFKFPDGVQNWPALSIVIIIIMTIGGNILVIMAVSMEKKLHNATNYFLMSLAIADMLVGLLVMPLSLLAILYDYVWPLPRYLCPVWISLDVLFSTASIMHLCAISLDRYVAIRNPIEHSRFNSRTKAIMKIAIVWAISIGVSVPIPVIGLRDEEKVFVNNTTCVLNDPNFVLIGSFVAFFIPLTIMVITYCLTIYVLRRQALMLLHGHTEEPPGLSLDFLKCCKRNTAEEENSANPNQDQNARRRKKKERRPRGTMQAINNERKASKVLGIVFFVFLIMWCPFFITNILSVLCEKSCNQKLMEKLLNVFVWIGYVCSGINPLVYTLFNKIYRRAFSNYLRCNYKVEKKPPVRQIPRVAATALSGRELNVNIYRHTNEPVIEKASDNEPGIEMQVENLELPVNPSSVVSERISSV
Test: Agonist activity at human 5-HT2C-INI receptor isoform expressed in Flp-IN HEK293 cells assessed as induction of Gq-mediated calcium flux measured every second for 5 mins by Fluo-4 dye based FLIPR assay relative to serotonin
Type: functional, cell-based
Measured Parameter: Emax (%)
Answer format: numeric, % implied, no suffix.

Data request: Please look up its Emax: COc1ccc(F)cc1C1CC1CNC1(c2ccccc2OC)CC1.Cl (racemic)
Data returned: 77

Data request: Returns the measured Emax for the input molecule. Input: COc1ccc(F)cc1C1CC1CNCc1ccccc1C#N (racemic)
Data returned: 30

Data request: Quick check: Emax of COc1ccc(F)cc1C1CC1CNCc1ccccc1O.Cl (racemic) ?
Data returned: 63

Data request: What value of measured Emax is listed for "COc1ccc(F)cc1[C@H]1C[C@@H]1CNCc1ccccc1F.Cl" ?
Data returned: 78

Data request: Field request: Emax | item: "COc1ccc(F)cc1[C@H]1C[C@@H]1CNCc1ccccc1Cl.Cl"
Data returned: 94

Data request: Give its Emax value. Item: "COc1ccccc1CNC[C@H]1C[C@@H]1c1cc(F)ccc1OCCF"
Data returned: 93

Data request: Quick one: Emax for "COc1ccc(F)cc1[C@@H]1C[C@H]1CNCc1ccccc1F.Cl" ?
Data returned: 90

Data request: For COc1ccc(F)cc1C1CC1CNCc1ccccc1OCCF (racemic) , what is its reported Emax?
Data returned: 16
